IC50 overview
# Test system: A549 cells
# experimental-details: MTT assay, inhibition of tumour cell growth
# Assay type: cell-based, human
# protocol-conditions: Homo sapiens, A549, 24 h, mean ± s, n = 3
All answers are understood in µM, so give the number only.

O=C1C(=Cc2ccc(Cl)c(Cl)c2)CNCC1=Cc1ccc(Cl)c(Cl)c1 | 11.9

# evaluate next
[ask] Value lookup for IC50; key = COc1cc(/C=C/C(=O)CC(=O)/C=C/c2ccc(O)c(OC)c2)ccc1O
[reply] 33.5

====

# Test system: Hela cells
# experimental-details: MTT assay, inhibition of tumour cell growth
# Type: cell-based, human
# protocol-conditions: Homo sapiens, HeLa, 24 h, mean ± s, n = 3
quantity: IC50 (µM)
All answers are understood in µM, so give the number only.

[ask] Value lookup for IC50; key = COc1cc(/C=C/C(=O)CC(=O)/C=C/c2ccc(O)c(OC)c2)ccc1O
[reply] 29.2
